Values compiled from patent US4616081A.

# Test system: Serratia marcescens
# Test name: MIC against Serratia marcescens
# Format: cell-based
# Condition label: Bacterial count inoculated 10^6 cells/ml
Reported metric: Minimum Inhibitory Concentration (MIC)

Compound	Reported metric	Qualifier operator	Result number
CO/N=C(\C(=O)N[C@@H]1C(=O)N2C(C(=O)O)=C(CSc3nnc(CC(N)C(=O)O)s3)CS[C@H]12)c1csc(N)n1 (some centres unmarked)	Minimum Inhibitory Concentration (MIC)	≤	0.2
Cc1nnc(SCC2=C(C(=O)O)N3C(=O)C(NC(=O)Cn4cnnn4)C3SC2)s1 (centres unmarked) [Comparative Compound (a), reference compound]	Minimum Inhibitory Concentration (MIC)	>	100
CO/N=C(\C(=O)N[C@@H]1C(=O)N2C(C(=O)O)=C(C[n+]3ccc(CC(N)C(=O)O)cc3)CS[C@H]12)c1csc(N)n1 (some centres unmarked)	Minimum Inhibitory Concentration (MIC)	=	0.1
CO/N=C(\C(=O)N[C@@H]1C(=O)N2C(C(=O)O)=C(CSc3nc(C(=O)O)c(N)n3C)CS[C@H]12)c1csc(N)n1	Minimum Inhibitory Concentration (MIC)	=	0.2
CCN1CCN(C(=O)NC(C(=O)NC2C(=O)N3C(C(=O)O)=C(CSc4nnnn4C)CSC23)c2ccc(O)cc2)C(=O)C1=O (centres unmarked) [Comparative Compound (c), reference compound]	Minimum Inhibitory Concentration (MIC)	=	0.8
CO/N=C(\C(=O)N[C@@H]1C(=O)N2C(C(=O)O)=C(COC(C)=O)CS[C@H]12)c1csc(N)n1 [Comparative Compound (b), reference compound]	Minimum Inhibitory Concentration (MIC)	≤	0.2
CO/N=C(\C(=O)N[C@@H]1C(=O)N2C(C(=O)O)=C(C[n+]3cccc(CC(N)C(=O)O)c3)CS[C@H]12)c1csc(N)n1 (some centres unmarked)	Minimum Inhibitory Concentration (MIC)	=	0.4
CO/N=C(\C(=O)N[C@@H]1C(=O)N2C(C(=O)O)=C(CSc3ncc(C[C@H](N)C(=O)O)[nH]3)CS[C@H]12)c1csc(N)n1	Minimum Inhibitory Concentration (MIC)	≤	0.2

====

# System: Staph. aureus MS27
# Test name: MIC against Staph. aureus MS27
# Assay type: cell-based
# Condition label: Bacterial count inoculated 10^6 cells/ml
Reported values of Minimum Inhibitory Concentration (MIC) for individual entries

Compound	Minimum Inhibitory Concentration (MIC)
Cc1nnc(SCC2=C(C(=O)O)N3C(=O)C(NC(=O)Cn4cnnn4)C3SC2)s1 (stereo not shown) [Comparative Compound (a), reference compound]	1.6
CCN1CCN(C(=O)NC(C(=O)NC2C(=O)N3C(C(=O)O)=C(CSc4nnnn4C)CSC23)c2ccc(O)cc2)C(=O)C1=O (stereo not shown) [Comparative Compound (c), reference compound]	3.1
CO/N=C(\C(=O)N[C@@H]1C(=O)N2C(C(=O)O)=C(CSc3nc(C(=O)O)c(N)n3C)CS[C@H]12)c1csc(N)n1	6.3
CO/N=C(\C(=O)N[C@@H]1C(=O)N2C(C(=O)O)=C(CSc3nnc(CC(N)C(=O)O)s3)CS[C@H]12)c1csc(N)n1 (stereo partly shown)	3.1
CO/N=C(\C(=O)N[C@@H]1C(=O)N2C(C(=O)O)=C(C[n+]3cccc(CC(N)C(=O)O)c3)CS[C@H]12)c1csc(N)n1 (stereo partly shown)	6.3
CO/N=C(\C(=O)N[C@@H]1C(=O)N2C(C(=O)O)=C(C[n+]3ccc(CC(N)C(=O)O)cc3)CS[C@H]12)c1csc(N)n1 (stereo partly shown)	3.1
CO/N=C(\C(=O)N[C@@H]1C(=O)N2C(C(=O)O)=C(COC(C)=O)CS[C@H]12)c1csc(N)n1 [Comparative Compound (b), reference compound]	1.6
